- System: 485176-168-R4-J1-PDC complex spheroid growth;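 further: spheroids exposed to compounds for seven days before readout; luminescence viability expressed relative to DMSO vehicle wells set as 100%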
- protocol summary: Anticancer human tumor 485176-168-R4-J1-PDC patient-derived pancreatic adenocarcinoma cell line growth inhibition [RAS]
- condition context: second compound 0.0316 µM; first compound 0.0316 µM; active compounds read low
reported endpoint: viability, T/C (%)
// return numeric value only (unit: %, not printed)

// solved cases for viability, T/C follow
[[record]]
compound = "O=C(c1ccc(F)c(F)c1Nc1ccc(I)cc1F)N1CC(O)([C@@H]2CCCCN2)C1 + C=CC(=O)N1CCN(c2nc(OCC3CCCN3C)nc3c(F)c(-c4nc(N)cc(C)c4C(F)(F)F)c(Cl)cc23)C(C)C1"
unit_label = "%"
experimental_result = 77

[[record]]
compound = "CC(C)n1nc(-c2ccc3oc(N)nc3c2)c2c(N)ncnc21 + C=CC(=O)N1CCN(c2nc(OCC3CCCN3C)nc3c(F)c(-c4nc(N)cc(C)c4C(F)(F)F)c(Cl)cc23)C(C)C1"
unit_label = "%"
experimental_result = 42.3

[[record]]
compound = "C[C@@H](NC(=O)c1ncnc(N)c1Cl)c1ncc(C(=O)Nc2cc(C(F)(F)F)c(Cl)cn2)s1 + C=CC(=O)N1CCN(c2nc(OCC3CCCN3C)nc3c(F)c(-c4nc(N)cc(C)c4C(F)(F)F)c(Cl)cc23)C(C)C1"
unit_label = "%"
experimental_result = 111

[[record]]
compound = "C=CC(=O)Nc1cc(Nc2nccc(-c3cn(C)c4ccccc34)n2)c(OC)cc1N(C)CCN(C)C + C=CC(=O)N1CCN(c2nc(OCC3CCCN3C)nc3c(F)c(-c4nc(N)cc(C)c4C(F)(F)F)c(Cl)cc23)C(C)C1"
unit_label = "%"
experimental_result = 104

[[record]]
compound = "CCC(CC)c1cc(NC2CCC(N)C2)n2nccc2n1 (stereo not drawn) + C=CC(=O)N1CCN(c2nc(OCC3CCCN3C)nc3c(F)c(-c4nc(N)cc(C)c4C(F)(F)F)c(Cl)cc23)C(C)C1"
unit_label = "%"
experimental_result = 101

[[record]]
compound = "CC(C)NCC(C(=O)N1CCN(c2ncnc3c2C(C)CC3O)CC1)c1ccc(Cl)cc1 (stereo not drawn) + C#Cc1c(F)ccc2cc(O)cc(-c3ncc4c(N5CC6CCC(C5)N6)nc(OCC56CCCN5CC(F)C6)nc4c3F)c12"
unit_label = "%"
experimental_result = 113

[[record]]
compound = "Nc1ccn(C2OC(CO)C(O)C2(F)F)c(=O)n1 (stereo not drawn) + C=CC(=O)N1CCN(c2nc(OCC3CCCN3C)nc3c(F)c(-c4nc(N)cc(C)c4C(F)(F)F)c(Cl)cc23)C(C)C1"
unit_label = "%"
experimental_result = 13

[[record]]
compound = "Cc1nc(N2CCC3(CC2)COC(C)C3N)c(CO)nc1Sc1ccnc(N)c1Cl (stereo not drawn) + C#Cc1c(F)ccc2cc(O)cc(-c3ncc4c(N5CC6CCC(C5)N6)nc(OCC56CCCN5CC(F)C6)nc4c3F)c12"
unit_label = "%"
experimental_result = 111


Tell me the measured viability, T/C of O=C(c1ccc(F)c(F)c1Nc1ccc(I)cc1F)N1CC(O)([C@@H]2CCCCN2)C1 + C#Cc1c(F)ccc2cc(O)cc(-c3ncc4c(N5CC6CCC(C5)N6)nc(OCC56CCCN5CC(F)C6)nc4c3F)c12 , please.
69.7

Tell me the measured viability, T/C of CC1(O)CCCC1n1c(=O)c(C(F)F)cc2cnc(NC3CCN(S(C)(=O)=O)CC3)nc21 (stereo not drawn) + C#Cc1c(F)ccc2cc(O)cc(-c3ncc4c(N5CC6CCC(C5)N6)nc(OCC56CCCN5CC(F)C6)nc4c3F)c12 , please.
95

Tell me the measured viability, T/C of CC(C)n1nc(-c2ccc3oc(N)nc3c2)c2c(N)ncnc21 + C#Cc1c(F)ccc2cc(O)cc(-c3ncc4c(N5CC6CCC(C5)N6)nc(OCC56CCCN5CC(F)C6)nc4c3F)c12 , please.
49

Tell me the measured viability, T/C of NC1c2ccccc2OC12CCN(c1cnc3c(N4CCCc5ncccc54)n[nH]c3n1)CC2 (stereo not drawn) + C#Cc1c(F)ccc2cc(O)cc(-c3ncc4c(N5CC6CCC(C5)N6)nc(OCC56CCCN5CC(F)C6)nc4c3F)c12 , please.
77

Tell me the measured viability, T/C of CCN1CCN(Cc2ccc(Nc3ncc(F)c(-c4cc(F)c5nc(C)n(C(C)C)c5c4)n3)nc2)CC1 + C#Cc1c(F)ccc2cc(O)cc(-c3ncc4c(N5CC6CCC(C5)N6)nc(OCC56CCCN5CC(F)C6)nc4c3F)c12 , please.
101

Tell me the measured viability, T/C of C=CC(=O)N1CCN(c2nc(OCC3CCCN3C)nc3c(F)c(-c4nc(N)cc(C)c4C(F)(F)F)c(Cl)cc23)C(C)C1 (stereo not drawn) + C#Cc1c(F)ccc2cc(O)cc(-c3ncc4c(N5CC6CCC(C5)N6)nc(OCC56CCCN5CC(F)C6)nc4c3F)c12 , please.
88.5

Tell me the measured viability, T/C of CCN1CCN(Cc2ccc(Nc3ncc(F)c(-c4cc(F)c5nc(C)n(C(C)C)c5c4)n3)nc2)CC1 + C=CC(=O)N1CCN(c2nc(OCC3CCCN3C)nc3c(F)c(-c4nc(N)cc(C)c4C(F)(F)F)c(Cl)cc23)C(C)C1 , please.
88.2

Tell me the measured viability, T/C of C=CC(=O)Nc1cc(Nc2nccc(-c3cn(C)c4ccccc34)n2)c(OC)cc1N(C)CCN(C)C + C#Cc1c(F)ccc2cc(O)cc(-c3ncc4c(N5CC6CCC(C5)N6)nc(OCC56CCCN5CC(F)C6)nc4c3F)c12 , please.
99

Tell me the measured viability, T/C of Cc1nc(N2CCC3(CC2)COC(C)C3N)c(CO)nc1Sc1ccnc(N)c1Cl (stereo not drawn) + C=CC(=O)N1CCN(c2nc(OCC3CCCN3C)nc3c(F)c(-c4nc(N)cc(C)c4C(F)(F)F)c(Cl)cc23)C(C)C1 , please.
94

Tell me the measured viability, T/C of CC(C)NCC(C(=O)N1CCN(c2ncnc3c2C(C)CC3O)CC1)c1ccc(Cl)cc1 (stereo not drawn) + C=CC(=O)N1CCN(c2nc(OCC3CCCN3C)nc3c(F)c(-c4nc(N)cc(C)c4C(F)(F)F)c(Cl)cc23)C(C)C1 , please.
101
